assay: Antiplatelet activity in rat platelet rich plasma assessed as drug level causing inhibition of ADP-stimulated platelet aggregation pretreated 2 mins before ADP challenge; type: functional
Could you please report measured Activity for the items listed next?

Compound: Cc1cc(O)c2c(c1)C(=O)c1cc(O)cc(O)c1C2=O [EMODIN]
Activity: >0.25 mg/mL

Compound: O=C(O)c1cc(O)c2c(c1)C(=O)c1cccc(O)c1C2=O [RHEIN]
Activity: 0.25 mg/mL

Compound: COc1c(O)cc2c(c1O)C(=O)c1c(cc(C)c(O)c1OC)C2=O [AURANTIOOBTUSIN]
Activity: >0.25 mg/mL

Compound: COc1c(O[C@@H]2O[C@H](CO)[C@@H](O)[C@H](O)[C@H]2O)cc2c(c1O)C(=O)c1c(cc(C)c(O)c1OC)C2=O
Activity: 0.05 mg/mL

Compound: COc1c(O)c(C)cc2c1C(=O)c1c(O)cccc1C2=O [OBTUSIFOLIN]
Activity: >0.25 mg/mL

Compound: Cc1cc(O)c2c(c1)C(=O)c1cccc(O)c1C2=O [CHRYSOPHANOL]
Activity: >0.25 mg/mL

Compound: COc1cc(O)c2c(c1)C(=O)c1cc(C)cc(O)c1C2=O [PHYSCION]
Activity: 0.25 mg/mL

Compound: O=C1c2ccccc2C(=O)c2c(O)ccc(O)c21 [QUINIZARIN]
Activity: >0.25 mg/mL

Please supply Activity for each of the following items, keeping them in order.
1. O=C1c2cccc(O)c2C(=O)c2c(O)cc(CO)cc21 [ALOE-EMODIN]
2. Cc1cc(O)c2c(c1)Cc1cccc(O)c1C2=O

1. >0.25 mg/mL
2. >0.25 mg/mL
